- target-under-test: CCR2 receptor (Homo sapiens, UniProt P41597)
- Construct: expressed in transfected cells
- Sequence (P41597 whole entry): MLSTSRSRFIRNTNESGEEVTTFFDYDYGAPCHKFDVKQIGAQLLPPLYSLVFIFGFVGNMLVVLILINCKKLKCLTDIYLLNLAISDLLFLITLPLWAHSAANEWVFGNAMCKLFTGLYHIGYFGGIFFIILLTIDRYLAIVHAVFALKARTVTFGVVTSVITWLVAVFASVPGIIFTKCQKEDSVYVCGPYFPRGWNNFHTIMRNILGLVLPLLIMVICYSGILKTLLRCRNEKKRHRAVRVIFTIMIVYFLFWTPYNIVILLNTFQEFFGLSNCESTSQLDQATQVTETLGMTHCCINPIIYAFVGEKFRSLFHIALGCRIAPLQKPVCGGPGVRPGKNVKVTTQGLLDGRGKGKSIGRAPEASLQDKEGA
- procedure-summary: compound-induced calcium activity on FLIPR Tetra in HEK-Gqi5 cells stably expressing CCR2
- Assay type: cell-based
- reported-conditions: CCR2 receptor; HEK-Gqi5 cells stably expressing CCR2; calcium FLIPR Tetra; read-out: IC50
- Protocol: HEK-Gqi5 cells stably expressing CCR2 were cultured in (DMEM high glucose, 10% FBS, 1% PSA, 400 μg/ml geneticin and 50 μg/ml hygromycin. Appropriate positive control chemokines (MCP-1, MIP1A or RANTES) was used as the positive control agonist for screening compound-induced calcium activity assayed on the FLIPR^Tetra. The drug plates were prepared in 384-well microplates using the EP3 and the MultiPROBE robotic liquid handling systems. Compounds were synthesized and tested for CCR2 activity.
pIC50: −log10 of the molar value.
compounds and their reported pIC50

{"compound": "O=S(=O)(Cc1cccnc1)c1ncc(Cl)cc1NS(=O)(=O)c1cc2ccccc2o1 [Compound 6]", "pIC50": 5.67}
{"compound": "O=S(=O)(Nc1cc(F)cnc1Sc1ccccc1)c1cc2ccccc2o1 [Compound 40]", "pIC50": 6.33}
{"compound": "O=S(=O)(Nc1cc(Cl)cnc1SCc1cccnc1)c1cc2ccccc2o1 [Compound 4]", "pIC50": 7.49}
{"compound": "Nc1cccc(C[S+]([O-])c2ncc(Cl)cc2NS(=O)(=O)c2cc3ccccc3o2)c1 (centres unmarked) [Compound 19]", "pIC50": 7.00}
{"compound": "COC(=O)c1ccccc1Oc1ncc(Cl)cc1NS(=O)(=O)c1cc2ccccc2o1 [Compound 25]", "pIC50": 6.67}
{"compound": "Nc1cccc(C[S+]([O-])c2ncccc2NS(=O)(=O)c2cc3ccccc3o2)c1 (centres unmarked) [Compound 12]", "pIC50": 6.59}
{"compound": "O=S(=O)(Cc1ccc[n+]([O-])c1)c1ncc(Cl)cc1NS(=O)(=O)c1cc2ccccc2o1 [Compound 7]", "pIC50": 6.89}
{"compound": "COC(=O)c1ccccc1CSc1ncccc1NS(=O)(=O)c1cc2ccccc2o1 [Compound 56]", "pIC50": 5.76}
{"compound": "Cc1cnc([S+]([O-])Cc2ccccc2)c(NS(=O)(=O)c2cc3ccccc3o2)c1 (centres unmarked) [Compound 22]", "pIC50": 7.60}
{"compound": "O=S(=O)(Nc1cc(F)cnc1[S+]([O-])Cc1ccccc1)c1cc2ccccc2o1 (centres unmarked) [Compound 16]", "pIC50": 7.74}
{"compound": "COC(=O)c1ccccc1C[S+]([O-])c1ncc(Cl)cc1NS(=O)(=O)c1cc2ccccc2o1 (centres unmarked) [Compound 37]", "pIC50": 6.72}
{"compound": "Cc1ncccc1Oc1ncc(Cl)cc1NS(=O)(=O)c1cc2ccccc2o1 [Compound 24]", "pIC50": 7.47}
{"compound": "O=S(=O)(Nc1cc(Cl)cnc1S(=O)(=O)c1ccccc1)c1cc2ccccc2o1 [Compound 31]", "pIC50": 7.77}
{"compound": "COC(=O)c1ccccc1CS(=O)(=O)c1ncc(Cl)cc1NS(=O)(=O)c1cc2ccccc2o1 [Compound 38]", "pIC50": 6.74}
{"compound": "Nc1cccc(CS(=O)(=O)c2ncccc2NS(=O)(=O)c2cc3ccccc3o2)c1 [Compound 14]", "pIC50": 7.15}
{"compound": "O=S(=O)(Nc1cc(F)cnc1[S+]([O-])c1ccccc1)c1cc2ccccc2o1 (centres unmarked) [Compound 41]", "pIC50": 7.17}
{"compound": "O=S(=O)(Nc1cc(Cl)cnc1[S+]([O-])Cc1cccnc1)c1cc2ccccc2o1 (centres unmarked) [Compound 5]", "pIC50": 6.70}

---

Quick reference for % ANTAGONISM among some molecules
- target-under-test: CCR2 receptor (Homo sapiens)
- Construct: expressed in transfected cells
- procedure-summary: compound-induced calcium activity on FLIPR Tetra in HEK-Gqi5 cells stably expressing CCR2
- Assay type: cell-based
- reported-conditions: CCR2 receptor; HEK-Gqi5 cells stably expressing CCR2; calcium FLIPR Tetra

{"molecule": "O=S(=O)(Nc1cc(F)cnc1Sc1ccccc1)c1cc2ccccc2o1", "unit-symbol": "%", "% ANTAGONISM": 65}
{"molecule": "O=C(O)c1ccccc1CSc1ncc(Cl)cc1NS(=O)(=O)c1cc2ccccc2o1", "unit-symbol": "%", "% ANTAGONISM": 97}
{"molecule": "COC(=O)c1ccccc1CSc1ncccc1NS(=O)(=O)c1cc2ccccc2o1", "unit-symbol": "%", "% ANTAGONISM": 92}
{"molecule": "O=C(O)c1ccccc1[S+]([O-])c1ncc(Cl)cc1NS(=O)(=O)c1cc2ccccc2o1 (centres unmarked)", "unit-symbol": "%", "% ANTAGONISM": 5}
{"molecule": "O=S(=O)(Nc1cc(F)cnc1SCc1ccccc1)c1cc2ccccc2o1", "unit-symbol": "%", "% ANTAGONISM": 94}
{"molecule": "O=S(=O)(Cc1ccccc1)c1ncc(F)cc1NS(=O)(=O)c1cc2ccccc2o1", "unit-symbol": "%", "% ANTAGONISM": 101}
{"molecule": "Cc1ncccc1COc1ncc(Cl)cc1NS(=O)(=O)c1cc2ccccc2o1", "unit-symbol": "%", "% ANTAGONISM": 102}
{"molecule": "O=C(O)c1ccccc1Oc1ncc(Cl)cc1NS(=O)(=O)c1cc2ccccc2o1", "unit-symbol": "%", "% ANTAGONISM": 97}
{"molecule": "O=C(O)c1ccccc1Sc1ncc(Cl)cc1NS(=O)(=O)c1cc2ccccc2o1", "unit-symbol": "%", "% ANTAGONISM": 102}
{"molecule": "Nc1cccc(CSc2ncc(Cl)cc2NS(=O)(=O)c2cc3ccccc3o2)c1", "unit-symbol": "%", "% ANTAGONISM": 98}
{"molecule": "CC(C)(C)OC(=O)Nc1cccc(CS(=O)(=O)c2ncccc2NS(=O)(=O)c2cc3ccccc3o2)c1", "unit-symbol": "%", "% ANTAGONISM": 102}
{"molecule": "COC(=O)c1ccccc1C[S+]([O-])c1ncccc1NS(=O)(=O)c1cc2ccccc2o1 (centres unmarked)", "unit-symbol": "%", "% ANTAGONISM": 102}
{"molecule": "O=S(=O)(Nc1cc(F)cnc1[S+]([O-])Cc1ccccc1)c1cc2ccccc2o1 (centres unmarked)", "unit-symbol": "%", "% ANTAGONISM": 95}
{"molecule": "Cc1ncccc1Oc1ncc(Cl)cc1NS(=O)(=O)c1cc2ccccc2o1", "unit-symbol": "%", "% ANTAGONISM": 90}
{"molecule": "Cc1cnc([S+]([O-])Cc2ccccc2)c(NS(=O)(=O)c2cc3ccccc3o2)c1 (centres unmarked)", "unit-symbol": "%", "% ANTAGONISM": 103}
{"molecule": "Cc1cnc(SCc2ccccc2)c(NS(=O)(=O)c2cc3ccccc3o2)c1", "unit-symbol": "%", "% ANTAGONISM": 80}
{"molecule": "COC(=O)c1ccccc1CS(=O)(=O)c1ncc(Cl)cc1NS(=O)(=O)c1cc2ccccc2o1", "unit-symbol": "%", "% ANTAGONISM": 97}

---

- target-under-test: CCR2 receptor (Homo sapiens, UniProt P41597)
- Construct: expressed in transfected cells
- procedure-summary: compound-induced calcium activity on FLIPR Tetra in HEK-Gqi5 cells stably expressing CCR2
- Type: cell-based
- reported-conditions: CCR2 receptor; HEK-Gqi5 cells stably expressing CCR2; calcium FLIPR Tetra; read-out: IC50
Recorded measurements of IC50, one per entry
observable: IC50

{"compound": "O=C(O)c1ccccc1Oc1ncc(Cl)cc1NS(=O)(=O)c1cc2ccccc2o1 [Compound 26]", "target-under-test": "CCR2 receptor (Homo sapiens, UniProt P41597)", "result": "157 nM"}
{"compound": "O=S(=O)(Cc1ccccc1)c1ncc(F)cc1NS(=O)(=O)c1cc2ccccc2o1 [Compound 17]", "target-under-test": "CCR2 receptor (Homo sapiens, UniProt P41597)", "result": "43 nM"}
{"compound": "O=S(=O)(Nc1cc(Cl)cnc1[S+]([O-])Cc1ccccc1)c1cc2ccccc2o1 (centres unmarked) [Compound 2]", "target-under-test": "CCR2 receptor (Homo sapiens, UniProt P41597)", "result": "31 nM"}
{"compound": "O=S(=O)(Nc1cccnc1SCc1ccccc1)c1cc2ccccc2o1 [Compound 8]", "target-under-test": "CCR2 receptor (Homo sapiens, UniProt P41597)", "result": "3010 nM"}
{"compound": "O=C(O)c1ccccc1CS(=O)(=O)c1ncc(Cl)cc1NS(=O)(=O)c1cc2ccccc2o1 [Compound 39]", "target-under-test": "CCR2 receptor (Homo sapiens, UniProt P41597)", "result": "2690 nM"}
{"compound": "O=C(O)c1cccc(Sc2ncc(Cl)cc2NS(=O)(=O)c2cc3ccccc3o2)c1 [Compound 48]", "target-under-test": "CCR2 receptor (Homo sapiens, UniProt P41597)", "result": "786 nM"}
{"compound": "Cc1ncccc1COc1ncc(Cl)cc1NS(=O)(=O)c1cc2ccccc2o1 [Compound 33]", "target-under-test": "CCR2 receptor (Homo sapiens, UniProt P41597)", "result": "251 nM"}
{"compound": "O=S(=O)(Nc1cc(Cl)cnc1[S+]([O-])c1ccccc1)c1cc2ccccc2o1 (centres unmarked) [Compound 32]", "target-under-test": "CCR2 receptor (Homo sapiens, UniProt P41597)", "result": "7 nM"}
{"compound": "O=C(O)c1ccccc1Sc1ncc(Cl)cc1NS(=O)(=O)c1cc2ccccc2o1 [Compound 47]", "target-under-test": "CCR2 receptor (Homo sapiens, UniProt P41597)", "result": "1230 nM"}
{"compound": "Nc1cccc(CSc2ncccc2NS(=O)(=O)c2cc3ccccc3o2)c1 [Compound 11]", "target-under-test": "CCR2 receptor (Homo sapiens, UniProt P41597)", "result": "102 nM"}
{"compound": "O=S(=O)(Cc1ccccc1)c1ncc(Cl)cc1NS(=O)(=O)c1cc2ccccc2o1 [Compound 3]", "target-under-test": "CCR2 receptor (Homo sapiens, UniProt P41597)", "result": "19 nM"}
{"compound": "COC(=O)c1ccccc1CSc1ncc(Cl)cc1NS(=O)(=O)c1cc2ccccc2o1 [Compound 35]", "target-under-test": "CCR2 receptor (Homo sapiens, UniProt P41597)", "result": "4250 nM"}
{"compound": "O=S(=O)(Cc1ccccc1)c1ncccc1NS(=O)(=O)c1cc2ccccc2o1 [Compound 10]", "target-under-test": "CCR2 receptor (Homo sapiens, UniProt P41597)", "result": "16 nM"}
{"compound": "O=S(=O)(Nc1cccnc1[S+]([O-])Cc1ccccc1)c1cc2ccccc2o1 (centres unmarked) [Compound 9]", "target-under-test": "CCR2 receptor (Homo sapiens, UniProt P41597)", "result": "27 nM"}
{"compound": "O=C(O)c1ccccc1CSc1ncc(Cl)cc1NS(=O)(=O)c1cc2ccccc2o1 [Compound 36]", "target-under-test": "CCR2 receptor (Homo sapiens, UniProt P41597)", "result": "340 nM"}
{"compound": "O=C(O)c1ccccc1[S+]([O-])c1ncc(Cl)cc1NS(=O)(=O)c1cc2ccccc2o1 (centres unmarked) [Compound 50]", "target-under-test": "CCR2 receptor (Homo sapiens, UniProt P41597)", "result": "1950 nM"}
{"compound": "O=C(O)c1ccccc1CSc1ncccc1NS(=O)(=O)c1cc2ccccc2o1 [Compound 57]", "target-under-test": "CCR2 receptor (Homo sapiens, UniProt P41597)", "result": "493 nM"}
{"compound": "COC(=O)c1ccccc1CS(=O)(=O)c1ncccc1NS(=O)(=O)c1cc2ccccc2o1 [Compound 60]", "target-under-test": "CCR2 receptor (Homo sapiens, UniProt P41597)", "result": "86 nM"}
{"compound": "Cc1cnc(SCc2ccccc2)c(NS(=O)(=O)c2cc3ccccc3o2)c1 [Compound 21]", "target-under-test": "CCR2 receptor (Homo sapiens, UniProt P41597)", "result": "194 nM"}
{"compound": "CC(C)(C)OC(=O)Nc1cccc(CS(=O)(=O)c2ncccc2NS(=O)(=O)c2cc3ccccc3o2)c1 [Compound 13]", "target-under-test": "CCR2 receptor (Homo sapiens, UniProt P41597)", "result": "497 nM"}
{"compound": "Nc1cccc(CS(=O)(=O)c2ncc(Cl)cc2NS(=O)(=O)c2cc3ccccc3o2)c1 [Compound 20]", "target-under-test": "CCR2 receptor (Homo sapiens, UniProt P41597)", "result": "142 nM"}
{"compound": "O=S(=O)(Nc1cc(F)cnc1SCc1ccccc1)c1cc2ccccc2o1 [Compound 15]", "target-under-test": "CCR2 receptor (Homo sapiens, UniProt P41597)", "result": "125 nM"}
{"compound": "Nc1cccc(CSc2ncc(Cl)cc2NS(=O)(=O)c2cc3ccccc3o2)c1 [Compound 18]", "target-under-test": "CCR2 receptor (Homo sapiens, UniProt P41597)", "result": "95 nM"}
{"compound": "O=C(c1ccccc1)c1ncc(Cl)cc1NS(=O)(=O)c1cc2ccccc2o1 [Compound 29]", "target-under-test": "CCR2 receptor (Homo sapiens, UniProt P41597)", "result": "36 nM"}
{"compound": "COC(=O)c1ccccc1C[S+]([O-])c1ncccc1NS(=O)(=O)c1cc2ccccc2o1 (centres unmarked) [Compound 58]", "target-under-test": "CCR2 receptor (Homo sapiens, UniProt P41597)", "result": "198 nM"}
{"compound": "O=S(=O)(Nc1cc(Cl)cnc1SCc1ccccc1)c1cc2ccccc2o1 [Compound 1]", "target-under-test": "CCR2 receptor (Homo sapiens, UniProt P41597)", "result": "252 nM"}
{"compound": "Cc1cnc([S+]([O-])c2ccccc2)c(NS(=O)(=O)c2cc3ccccc3o2)c1 (centres unmarked) [Compound 45]", "target-under-test": "CCR2 receptor (Homo sapiens, UniProt P41597)", "result": "455 nM"}
{"compound": "Cc1cnc(S(=O)(=O)Cc2ccccc2)c(NS(=O)(=O)c2cc3ccccc3o2)c1 [Compound 23]", "target-under-test": "CCR2 receptor (Homo sapiens, UniProt P41597)", "result": "12 nM"}
{"compound": "Cc1cnc(S(=O)(=O)c2ccccc2)c(NS(=O)(=O)c2cc3ccccc3o2)c1 [Compound 46]", "target-under-test": "CCR2 receptor (Homo sapiens, UniProt P41597)", "result": "1440 nM"}
